Each entry below carries its recorded EC50.
target: DCAF15/RBM39 (Homo sapiens, UniProt Q14498+Q66K64); experiment: AlphaLISA compound-induced DCAF15-RBM39 ternary complex formation; conditions: His-tagged DCAF15 complex and biotin-carrying RBM39

Take a look at these entries with their results.
Cc1nc2c(n1C)CCN(C(=O)c1ccc(S(=O)(=O)Nc3ccc(Cl)c4c(Cl)c[nH]c34)c(F)c1)C2 [Compound 229]
< 1 µM
COCCOc1ccc(S(=O)(=O)Nc2ccc(Cl)c3c(Cl)c[nH]c23)cc1Br [Compound 231]
1 to 10 µM
CCN(CC)C(=O)c1ccc(CNC(=O)c2cccc(S(=O)(=O)Nc3ccc(Cl)c4c(Cl)c[nH]c34)c2F)cc1 [Compound 170]
1 to 10 µM

// returns EC50 for O=C(NCCCOCc1ccccc1)c1ccc(S(=O)(=O)Nc2ccc(Cl)c3c(Cl)c[nH]c23)c(F)c1 [Compound 205] with DCAF15/RBM39 (Homo sapiens, UniProt Q14498+Q66K64); value = < 1 µM

// assay DCAF15/RBM39 (Homo sapiens, UniProt Q14498+Q66K64), entry Cc1ccnc(CNC(=O)c2cccc(S(=O)(=O)Nc3ccc(Cl)c4c(Cl)c[nH]c34)c2F)c1 [Compound 178] , EC50 value = 1 to 10 µM

Let me check: O=C(c1ccc(S(=O)(=O)Nc2ccc(Cl)c3c(Cl)c[nH]c23)c(F)c1)N1CC[C@H](n2ccnn2)C1 [Compound 217] , system DCAF15/RBM39 (Homo sapiens, UniProt Q14498+Q66K64), measured EC50 is < 1 µM

Item: Cc1nc(-c2ccc(COc3cccc(S(=O)(=O)Nc4ccc(Cl)c5c(Cl)c[nH]c45)c3)cc2)no1 [Compound 63] | System: DCAF15/RBM39 (Homo sapiens, UniProt Q14498+Q66K64) | EC50: 1 to 10 µM

Form: item CN1CC[C@@H](c2ccc(F)cc2)[C@H](COc2ccc(S(=O)(=O)Nc3ccc(Cl)c4c(Cl)c[nH]c34)cc2)C1 [Compound 42] ; test system DCAF15/RBM39 (Homo sapiens, UniProt Q14498+Q66K64); EC50: 1 to 10 µM

Lab entry: DCAF15/RBM39 (Homo sapiens, UniProt Q14498+Q66K64) assay, compound O=S(=O)(Nc1ccc(Cl)c2c(Cl)c[nH]c12)c1ccc(OC(F)F)c(F)c1 [Compound 38] , EC50 = < 1 µM

Tested on DCAF15/RBM39 (Homo sapiens, UniProt Q14498+Q66K64), the item O=S(=O)(Nc1ccc(Cl)c2c(Cl)c[nH]c12)c1ccc(OC2CCC3(CC2)CNC3)cc1 [Compound 27] showed EC50 equal to 1 to 10 µM

The measured values listed here are drawn from patent US20240327351A1.
